Test system: L1210JF cells
Measurement Description: MTT cytotoxicity, L1210JF
Assay type: cell-based, murine
Condition Details: no ATRA, media containing 1 mM folic acid
Parameter: IC50 (nM)
Write down the numeric answer in nM and omit the unit.

Given the entry COc1cccc2c1C(=O)c1c(O)c3c(c(O)c1C2=O)C[C@@](O)(C(=O)CO)C[C@@H]3O[C@H]1C[C@H](N)[C@H](O)[C@H](C)O1 [Free DOX, doxorubicin] , report its measured IC50.
870
